Where these numbers come from: ChEMBL document CHEMBL3997846

EXPERIMENT SUMMARY: Selectivity index, ratio of IC50 for rat L6 cells to IC50 for bloodstream forms of Trypanosoma brucei rhodesiense STIB900 trypomastigotes
Assay type: toxicity
CONDITIONS: read-out: Ratio IC50
QUANTITY MEASURED: selectivity ratio

CNc1nc(F)nc2c1ncn2[C@@H]1O[C@H](C)[C@@H](O)[C@H]1O    1
Nc1nc2c(ccn2[C@@H]2O[C@H](CO)[C@@H](O)[C@H]2O)c(=S)[nH]1    3
CSC[C@H]1O[C@@H](n2cnc3c(N)nc(N=[N+]=[N-])nc32)[C@H](O)[C@@H]1O    5
CS(=O)(=O)C[C@H]1O[C@@H](n2cnc3c(N)nc(Cl)nc32)[C@H](O)[C@@H]1O    1
CC(=O)NC[C@H]1O[C@@H](n2cnc3c(N)nc(Cl)nc32)[C@H](OC(C)=O)[C@@H]1OC(C)=O    2
CSC[C@H]1O[C@@H](n2cnc3c(N)nc(F)nc32)[C@H](OC(C)=O)[C@@H]1OC(C)=O    0.6
CNc1nc(C#N)nc2c1ncn2[C@@H]1O[C@H](CSC)[C@@H](O)[C@H]1O    0.8
CC(=O)O[C@@H]1[C@H](OC(C)=O)[C@@H](CI)O[C@H]1n1cnc2c(N)nc(Cl)nc21    7
C[C@H]1O[C@@H](n2cnc3c(N)nc(C#N)nc32)[C@H](O)[C@@H]1O    2

====

EXPERIMENT SUMMARY: Selectivity index, ratio of IC50 for rat L6 cells to IC50 for bloodstream forms of Trypanosoma brucei rhodesiense STIB900 trypomastigotes
Format: toxicity
CONDITIONS: read-out: Ratio IC50
Overview of reported selectivity ratio across a group of compounds:
QUANTITY MEASURED: selectivity ratio

CC(=O)O[C@@H]1[C@H](OC(C)=O)[C@@H](CN=[N+]=[N-])O[C@H]1n1cnc2c(N)nc(Cl)nc21    2
CNc1nc(C#N)nc2c1ncn2[C@@H]1O[C@H](C)[C@@H](O)[C@H]1O    0.8
CNc1nc(I)nc2c1ncn2[C@@H]1O[C@H](CSC)[C@@H](O)[C@H]1O    6
CSC[C@H]1O[C@@H](n2cnc3c(N)nc(Cl)nc32)[C@H](O)[C@@H]1O    1
CC(=O)O[C@@H]1[C@H](OC(C)=O)[C@@H](C[S+](C)[O-])O[C@H]1n1cnc2c(N)nc(Cl)nc21 (stereo partly drawn)    2
C[C@H]1O[C@@H](n2cnc3c(N)nc(Cl)nc32)[C@H](O)[C@@H]1O    2
CC(=O)O[C@@H]1[C@H](OC(C)=O)[C@@H](CN2C(=O)c3ccccc3C2=O)O[C@H]1n1cnc2c(N)nc(F)nc21    0.8
CNc1nc(Cl)c2ncn([C@@H]3O[C@H](C)[C@@H](O)[C@H]3O)c2n1    0.8
[N-]=[N+]=NC[C@H]1O[C@@H](n2cnc3c(N)nc(F)nc32)[C@H](O)[C@@H]1O    0.1
CSC[C@H]1O[C@@H](n2cnc3c(N)nc(Cl)nc32)[C@H](OC(C)=O)[C@@H]1OC(C)=O    7
CS(=O)(=O)C[C@H]1O[C@@H](n2cnc3c(N)nc(F)nc32)[C@H](O)[C@@H]1O    0.3
C[S+]([O-])C[C@H]1O[C@@H](n2cnc3c(N)nc(F)nc32)[C@H](O)[C@@H]1O (stereo partly drawn)    0.4
CNc1nc(I)nc2c1ncn2[C@@H]1O[C@H](C)[C@@H](O)[C@H]1O    3
CNc1nc(N)nc2c1ncn2[C@@H]1O[C@H](C)[C@@H](O)[C@H]1O    2
CC(=O)O[C@@H]1[C@H](OC(C)=O)[C@@H](CI)O[C@H]1n1cnc2c(N)nc(F)nc21    0.4
CSC[C@H]1O[C@@H](n2cnc3c(N)nc(I)nc32)[C@H](O)[C@@H]1O    27
CNc1ncnc2c1ncn2[C@@H]1O[C@H](CSC)[C@@H](O)[C@H]1O    10

====

EXPERIMENT SUMMARY: Selectivity index, ratio of IC50 for rat L6 cells to IC50 for Leishmania donovani MHOM/SD/62/ISCL2D axenic amastigotes
Assay type: toxicity
CONDITIONS: read-out: Ratio IC50
Overview of reported selectivity ratio across a group of compounds:
QUANTITY MEASURED: selectivity ratio

CSC[C@H]1O[C@@H](n2cnc3c(N)nc(F)nc32)[C@H](O)[C@@H]1O    0.7
CSC[C@H]1O[C@@H](n2cnc3c(N(C)N=O)nc(F)nc32)[C@H](O)[C@@H]1O    0.6
CS(=O)(=O)C[C@H]1O[C@@H](n2cnc3c(N)nc(F)nc32)[C@H](O)[C@@H]1O    0.1
CC(=O)O[C@@H]1[C@H](OC(C)=O)[C@@H](CN=[N+]=[N-])O[C@H]1n1cnc2c(N)nc(Cl)nc21    1
CNc1nc(N)nc2c1ncn2[C@@H]1O[C@H](C)[C@@H](O)[C@H]1O    0.6
CSC[C@H]1O[C@@H](n2cnc3c(/N=C/N(C)C)nc(F)nc32)[C@H](O)[C@@H]1O    0.6
C[C@H]1O[C@@H](n2cnc3c(N)nc(F)nc32)[C@H](O)[C@@H]1O    2
CC(=O)O[C@@H]1[C@H](OC(C)=O)[C@@H](CN=[N+]=[N-])O[C@H]1n1cnc2c(N)nc(F)nc21    0.5
CSC[C@H]1O[C@@H](n2cnc3c(N)nc(NN)nc32)[C@H](O)[C@@H]1O    1
[N-]=[N+]=NC[C@H]1O[C@@H](n2cnc3c(N)nc(F)nc32)[C@H](O)[C@@H]1O    3
COc1nc(I)nc2c1ncn2[C@@H]1O[C@H](C)[C@@H](O)[C@H]1O    1
CNc1nc(C#N)nc2c1ncn2[C@@H]1O[C@H](CSC)[C@@H](O)[C@H]1O    1
CSC[C@H]1O[C@@H](n2cnc3c(N)nc(I)nc32)[C@H](O)[C@@H]1O    1

====

Overview of reported selectivity ratio across a group of molecules:
EXPERIMENT SUMMARY: Selectivity index, ratio of IC50 for rat L6 cells to IC50 for Leishmania donovani MHOM/SD/62/ISCL2D axenic amastigotes
Format: toxicity
CONDITIONS: read-out: Ratio IC50
QUANTITY MEASURED: selectivity ratio

CSC[C@H]1O[C@@H](n2cnc3c(N)nc(Cl)nc32)[C@H](OC(C)=O)[C@@H]1OC(C)=O    6
CC(=O)O[C@@H]1[C@H](OC(C)=O)[C@@H](CN2C(=O)c3ccccc3C2=O)O[C@H]1n1cnc2c(N)nc(Cl)nc21    1
C[C@H]1O[C@@H](n2cnc3c(N)nc(C#N)nc32)[C@H](O)[C@@H]1O    2
Nc1nc(Cl)c2ccn([C@@H]3O[C@H](CO)[C@@H](O)[C@H]3O)c2n1    2720

====

EXPERIMENT SUMMARY: Selectivity index, ratio of IC50 for rat L6 cells to IC50 for Trypanosoma cruzi Tulahuen strain C2C4 amastigote forms harboring LacZ infected in rat L6 cells
Format: toxicity, cell-based
CONDITIONS: read-out: Ratio IC50
QUANTITY MEASURED: selectivity ratio

CSC[C@H]1O[C@@H](n2cnc3c(N)nc(N=[N+]=[N-])nc32)[C@H](O)[C@@H]1O    2
Nc1nc([Se][Se]c2nc(N)nc3c2ccn3[C@@H]2O[C@H](CO)[C@@H](O)[C@H]2O)c2ccn([C@@H]3O[C@H](CO)[C@@H](O)[C@H]3O)c2n1    1
C[S+]([O-])C[C@H]1O[C@@H](n2cnc3c(N)nc(F)nc32)[C@H](O)[C@@H]1O (stereo partly drawn)    0.2
CC(=O)O[C@@H]1[C@H](OC(C)=O)[C@@H](CN=[N+]=[N-])O[C@H]1n1cnc2c(N)nc(F)nc21    0.5
CNc1nc(C#N)nc2c1ncn2[C@@H]1O[C@H](C)[C@@H](O)[C@H]1O    2
CNc1nc(NC)c2ncn([C@@H]3O[C@H](C)[C@@H](O)[C@H]3O)c2n1    2
CSC[C@H]1O[C@@H](n2cnc3c(N)nc(F)nc32)[C@H](OC(C)=O)[C@@H]1OC(C)=O    1
CC(=O)NC[C@H]1O[C@@H](n2cnc3c(N)nc(F)nc32)[C@H](OC(C)=O)[C@@H]1OC(C)=O    1

====

EXPERIMENT SUMMARY: Selectivity index, ratio of IC50 for rat L6 cells to IC50 for Trypanosoma cruzi Tulahuen strain C2C4 amastigote forms harboring LacZ infected in rat L6 cells
Type: toxicity, cell-based
CONDITIONS: read-out: Ratio IC50
QUANTITY MEASURED: selectivity ratio

C[C@H]1O[C@@H](n2cnc3c(N)nc(F)nc32)[C@H](O)[C@@H]1O    0.3
CC(=O)O[C@@H]1[C@H](OC(C)=O)[C@@H](CI)O[C@H]1n1cnc2c(N)nc(F)nc21    0.4
C[C@H]1O[C@@H](n2cnc3c(N)nc(Cl)nc32)[C@H](O)[C@@H]1O    0.8
CC(=O)NC[C@H]1O[C@@H](n2cnc3c(N)nc(Cl)nc32)[C@H](OC(C)=O)[C@@H]1OC(C)=O    2
CSC[C@H]1O[C@@H](n2cnc3c(N)nc(I)nc32)[C@H](O)[C@@H]1O    2
Nc1nc(Cl)c2ccn([C@@H]3O[C@H](CO)[C@@H](O)[C@H]3O)c2n1    48
Nc1nc2c(ccn2[C@@H]2O[C@H](CO)[C@@H](O)[C@H]2O)c(=S)[nH]1    3
CNc1nc(Cl)c2ncn([C@@H]3O[C@H](C)[C@@H](O)[C@H]3O)c2n1    5
CSC[C@H]1O[C@@H](n2cnc3c(N(C)N=O)nc(F)nc32)[C@H](O)[C@@H]1O    0.9
COc1nc(I)nc2c1ncn2[C@@H]1O[C@H](C)[C@@H](O)[C@H]1O    1
CNc1nc(I)nc2c1ncn2[C@@H]1O[C@H](C)[C@@H](O)[C@H]1O    1
CNc1ncnc2c1ncn2[C@@H]1O[C@H](CSC)[C@@H](O)[C@H]1O    0.8
C[C@H]1O[C@@H](n2cnc3c(N)nc(C#N)nc32)[C@H](O)[C@@H]1O    1
[N-]=[N+]=NC[C@H]1O[C@@H](n2cnc3c(N)nc(Cl)nc32)[C@H](O)[C@@H]1O    2
CS(=O)(=O)C[C@H]1O[C@@H](n2cnc3c(N)nc(Cl)nc32)[C@H](O)[C@@H]1O    1
CNc1nc(C#N)nc2c1ncn2[C@@H]1O[C@H](CSC)[C@@H](O)[C@H]1O    1
CC(=O)O[C@@H]1[C@H](OC(C)=O)[C@@H](CN2C(=O)c3ccccc3C2=O)O[C@H]1n1cnc2c(N)nc(Cl)nc21    1
